test: A549 lung cancer cell viability effects, profiling panel, resazurin fluorescence, 24 h, PK04 Diversity Set (AID 1171); conditions: higher = more signal, called active from +8 up or from −8 down; also: test concentration not given here
Activity calls are given as the source filed them.
Task for the reader: assign each of the following compounds its reported z-score.

A selection of reference data follows.
INSERT INTO assay_data (compound, assay_result) VALUES
  ('COCC1=C2[C@@H](CCc3ccccc3)OB(O)C[C@@H]2[C@@H]2C(=O)N(Cc3ccccc3)C(=O)[C@@H]2C1', '0.21 (inactive)'),
  ('COc1ccccc1CN1C(=O)c2ccccc2[C@@H](C(=O)NCCN2CCOCC2)[C@@H]1c1ccc(CO)cc1', '1.33 (inactive)');

For each of the compounds below, note its z-score.
1. COc1ccc(C#Cc2ccc3c(c2)[C@]2(C(=O)N3)[C@H](C(=O)NC[C@H](O)c3ccccc3)[C@H]3C(=O)O[C@H](c4ccccc4)[C@H](c4ccccc4)N3[C@@H]2c2ccccc2OCCO)cc1
2. CC(c1ccccc1)C(O)C1C=CC2C(=O)NC(=O)C2N1Nc1ccccn1 (centres undefined)

-1.58 (inactive)
-0.81 (inactive)

---

Task for the reader: assign each of the following compounds its reported composite z-score.
molecular target: Dihydroorotate dehydrogenase (quinone), mitochondrial (Plasmodium falciparum (isolate 3D7)); experiment: PfDHODH enzyme inhibitors, primary screen, biochemical, C-terminal His tag, absorbance 600 nm (AID 1175); conditions: DCIP absorbance 600 nm, higher = more signal, called active from +8 up or from −8 down;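 also: recombinant parasite enzyme with a five histidine tag at its C terminus; test concentration not given here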
Answers are plain numbers.

For each of the compounds below, note its composite z-score.
1. O=C1O[C@@H](c2ccccc2)[C@@H](c2ccccc2)N2[C@@H](c3ccc(O)cc3)[C@]3(C(=O)Nc4ccc(C#CC5=CCCCC5)cc43)[C@@H](C(=O)O)[C@H]12
2. COC(=O)[C@@]1(Cc2ccc(OC)cc2)[C@H]2c3cc(C(=O)N4CCCC4)n(Cc4cc(F)cc5c4OCOC5)c3C[C@H]2CN1C(=O)c1ccccc1
3. CC(C)NC(=O)[C@@]1(Cc2ccccc2I)c2ccccc2C(=O)N(Cc2ccccc2)[C@H]1c1ccc(CO)cc1

1. -2.56
2. -0.607
3. 0.799

---

Task for the reader: assign each of the following molecules its reported z-score.
experiment: inhibitors of hydroxyurea-induced Chk1 phosphorylation, primary screen, imaging, HeLa, phospho-Chk1 antibody, percent positive cells (AID 1186); conditions: hydroxyurea-induced phospho-Chk1 immunofluorescence imaging, higher = more signal
Answers are plain numbers.

INSERT INTO assay_data (smiles_str, assay_result) VALUES
  ('C=CCNC(=O)[C@@H]1[C@H]2C(=O)O[C@H](c3ccccc3)[C@H](c3ccccc3)N2[C@H](c2ccccc2OCCO)[C@@]12C(=O)Nc1ccc(C#CC3=CCCCC3)cc12', 0.0372),
  ('COC(=O)c1c(CC[C@@H](CO)NC(=O)N[C@@H](Cc2ccccc2)Cn2cc(C3(O)CCCCC3)nn2)oc(C(C)=O)c1C(=O)OC', -0.0682);

// z-score lookup, molecule = [N-]=[N+]=NCc1ccccc1[C@H]1OC(c2ccc(OCCCO)cc2)=N[C@@]1(CCS(=O)(=O)c1ccccc1)C(=O)N1CCOCC1 , result: -0.0312

---

test: small-molecule microarray binders of probe aShh, primary screen, biochemical, biotinylated probe, 635/667 nm fluorescence (AID 1114); conditions: higher = more signal;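 also: probe is biotin-labelled aShh protein from a stem cell growth factor screen; measures binding of labelled protein to compounds printed on the slide; score merges feature fluorescence at 667 nm with signal-to-noise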
readout-kind: composite z-score
Answers are plain numbers.

INSERT INTO assay_data (compound, assay_result) VALUES
  ('CCOc1cc(C(O)C2C=CC3C(=O)N(c4ccccc4)C(=O)C3N2Nc2ccc([N+](=O)[O-])cc2)ccc1O (stereo not given)', -0.0849),
  ('COCC1=C2[C@@H](CCc3ccccc3)OB(O)C[C@@H]2[C@@H]2C(=O)N(Cc3ccccc3)C(=O)[C@@H]2C1', -0.214),
  ('O=c1oc(-c2ccccc2)nc2cc(Br)ccc12', -0.221);

For each of the compounds below, note its composite z-score.
1. COc1ccc([Si](C)(C)[C@H]2[C@H](CCn3cc([C@H](O)c4ccccc4)nn3)O[C@@]3(C(=O)N(Cc4cccc(N5CCC5=O)c4)c4ccccc43)[C@@H]2C)cc1
2. C=C(COC)C(=O)CC[C@H](OC(C)=O)c1cccc(OCCO)c1
3. C=CCNC(=O)[C@@H]1[C@H]2C(=O)O[C@H](c3ccccc3)[C@H](c3ccccc3)N2[C@H](c2ccc(O)cc2)[C@@]12C(=O)N(C(=O)OCCOC)c1ccccc12
4. Cc1ccc(S[C@]2(C(=O)NCc3ccccc3)CC(=O)N(Cc3ccccc3Cl)[C@@H]2c2ccc(CO)cc2I)cc1
5. CO[C@H]1O[C@H](CO)[C@@H](OC(=O)Nc2ccc(Oc3ccccc3)cc2)[C@H](OC(=O)Nc2ccccc2)[C@H]1OC(=O)Nc1ccccc1
6. COCC(=C=CC[C@@H](O)c1ccc(CO)o1)CCO
7. C[C@]1(C(=O)NCc2ccccc2)c2ccccc2C(=O)N(Cc2cc(F)cc(C(F)(F)F)c2)[C@H]1c1ccc(CO)cc1
8. CCCN1C(=O)[C@@]2(CCC(=O)OC(C)(C)C)N=C(c3ccc(OCCCO)cc3)O[C@H]2c2ccccc21

0.0278
0.111
-0.0904
-0.426
-0.0789
-0.217
0.0469
-0.0866

For each of the compounds below, note its composite z-score.
1. CN1C(=O)C2C=CC(C(O)c3ccccn3)N(Nc3ccccc3)C2C1=O (stereo not given)
2. C=CCC(OC(C)=O)[C@@H]1[C@@H](N(Cc2cccc3ccccc23)C(=O)c2ccc(C)cc2)c2cc(OCCCO)ccc2N1C(=O)Cc1ccc(OC)cc1 (stereo not given in full)
3. CCOC(=O)C[C@H]1[C@H](OC(=O)Cc2ccc3c(c2)OCO3)[C@@H](NC(=O)c2ccc(-c3ccccc3)cc2)c2cc(OCCCO)ccc2N1C(=O)c1ccccc1
4. [N-]=[N+]=NCc1ccccc1C[C@]1(C(=O)NCC(O)CO)N=C(c2ccc(OCCCO)cc2)O[C@H]1c1ccccc1N=[N+]=[N-] (stereo not given in full)

0.318
0.0278
0.0483
0.14
